Every entry's value here was drawn from ChEMBL document CHEMBL3822410.

In this section we review reported EC50 values for a set of compounds.
Molecular target: UniProtKB Q96RI1
Sequence (Q96RI1 whole entry, the tested form may be a part): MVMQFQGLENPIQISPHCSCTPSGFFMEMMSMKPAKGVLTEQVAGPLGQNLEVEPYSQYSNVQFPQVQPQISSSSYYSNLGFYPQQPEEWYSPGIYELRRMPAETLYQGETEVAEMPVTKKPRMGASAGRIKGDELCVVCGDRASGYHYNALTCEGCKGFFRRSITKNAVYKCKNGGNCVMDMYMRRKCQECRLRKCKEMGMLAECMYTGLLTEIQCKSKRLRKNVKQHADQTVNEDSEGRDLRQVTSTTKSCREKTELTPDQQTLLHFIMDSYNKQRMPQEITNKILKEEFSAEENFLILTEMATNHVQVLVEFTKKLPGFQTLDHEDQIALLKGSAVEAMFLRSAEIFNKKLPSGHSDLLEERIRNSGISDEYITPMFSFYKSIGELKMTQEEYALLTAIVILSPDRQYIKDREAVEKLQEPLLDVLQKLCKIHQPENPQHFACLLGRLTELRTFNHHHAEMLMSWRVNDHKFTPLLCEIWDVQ
Assay: Agonist activity at GST-tagged FXR LBD (187 to 472 residues) (unknown origin) assessed as FXR interaction with b-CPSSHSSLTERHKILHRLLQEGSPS-COOH by FRET assay
Reply with just the number (in nM).

Request the reported EC50 associated with "O=C(O)c1ccc([C@@H]2C[C@H]2c2ccc(OCc3c(-c4c(Cl)cccc4Cl)noc3C3CC3)cc2Cl)cc1" 80

Request the reported EC50 associated with O=C(NCCS(=O)(=O)O)c1ccc(C2CC2c2ccc(OCc3c(-c4c(Cl)cccc4Cl)noc3C3CC3)cc2Cl)cc1 (racemic) 76

Request the reported EC50 associated with CS(=O)(=O)NC(=O)c1ccc(C2CC2c2ccc(OCc3c(-c4c(Cl)cccc4Cl)noc3C3CC3)cc2Cl)cc1 (racemic) 90

Request the reported EC50 associated with "CC(C)n1nc(C(=O)O)cc1[C@H]1C[C@](O)(c2ccc(OCc3c(-c4c(Cl)cccc4Cl)noc3C3CC3)cc2Cl)C1" 9

Request the reported EC50 associated with "O=C(O)c1ccc([C@H]2C[C@@H]2c2ccc(OCc3c(-c4c(Cl)cccc4Cl)noc3C3CC3)cc2Cl)cc1" 1090

Continuing:
Request the reported EC50 associated with "CCO[C@]1(c2ccc(OCc3c(-c4c(Cl)cccc4Cl)noc3C3CC3)cc2Cl)C[C@H](c2cccc(C(=O)O)c2)C1" 277

Request the reported EC50 associated with CC(C)n1nc(C(=O)O)cc1C1CC1c1ccc(OCc2c(-c3c(Cl)cccc3Cl)noc2C2CC2)cc1Cl (racemic) 7
